assay_system: fatty acid amide hydrolase (FAAH) (Homo sapiens, UniProt O00519)
Construct: purchased Cayman 10005196
Sequence (O00519 1-579): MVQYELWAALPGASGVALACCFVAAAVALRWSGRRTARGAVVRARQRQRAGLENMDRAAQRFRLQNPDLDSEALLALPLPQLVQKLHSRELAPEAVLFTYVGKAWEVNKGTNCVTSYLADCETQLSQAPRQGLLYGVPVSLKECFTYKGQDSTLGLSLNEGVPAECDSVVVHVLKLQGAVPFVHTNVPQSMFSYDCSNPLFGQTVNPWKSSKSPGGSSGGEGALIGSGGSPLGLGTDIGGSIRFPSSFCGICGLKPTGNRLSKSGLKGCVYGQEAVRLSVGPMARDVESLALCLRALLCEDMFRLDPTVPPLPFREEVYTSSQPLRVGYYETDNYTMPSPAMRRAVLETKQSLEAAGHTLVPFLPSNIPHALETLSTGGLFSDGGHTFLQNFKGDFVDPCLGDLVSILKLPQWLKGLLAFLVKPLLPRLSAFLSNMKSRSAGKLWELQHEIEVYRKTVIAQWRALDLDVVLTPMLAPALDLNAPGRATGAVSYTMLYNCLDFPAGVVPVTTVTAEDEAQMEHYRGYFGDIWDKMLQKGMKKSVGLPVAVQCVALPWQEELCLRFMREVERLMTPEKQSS
assay_protocol: Cayman plate-based fluorometric FAAH assay kit
Assay type: biochemical
endpoint_name: pIC50
Answers are plain numbers, as −log10 of the molar value.

**Query** Would you kindly share the measured pIC50 for O=C(Oc1ccc([N+](=O)[O-])cc1)N1CCN(Cc2cccc(Oc3ccccc3)c2)CC1 [JZL-195, reference compound] ?
**Result** 8.88

---

assay_system: fatty acid amide hydrolase (FAAH) (Homo sapiens)
Construct: purchased Cayman 10005196
Sequence (O00519 1-579): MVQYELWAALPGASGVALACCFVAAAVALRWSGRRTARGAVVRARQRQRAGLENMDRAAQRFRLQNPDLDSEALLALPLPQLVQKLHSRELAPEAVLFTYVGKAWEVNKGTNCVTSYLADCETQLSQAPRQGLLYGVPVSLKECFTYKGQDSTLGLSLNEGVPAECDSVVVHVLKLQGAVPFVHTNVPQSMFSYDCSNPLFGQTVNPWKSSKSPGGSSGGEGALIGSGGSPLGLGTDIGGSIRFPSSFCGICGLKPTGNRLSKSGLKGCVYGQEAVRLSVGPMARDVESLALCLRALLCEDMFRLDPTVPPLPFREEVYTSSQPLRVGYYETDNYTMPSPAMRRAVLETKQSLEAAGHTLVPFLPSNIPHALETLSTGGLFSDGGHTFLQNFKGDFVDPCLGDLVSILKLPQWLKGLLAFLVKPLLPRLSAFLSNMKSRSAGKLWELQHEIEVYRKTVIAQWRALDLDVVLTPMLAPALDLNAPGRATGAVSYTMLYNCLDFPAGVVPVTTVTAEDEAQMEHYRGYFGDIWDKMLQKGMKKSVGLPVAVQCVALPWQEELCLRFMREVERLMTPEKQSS
assay_protocol: Cayman plate-based fluorometric FAAH assay kit
Format: biochemical
recorded_conditions: 100 nM compound; 5 min incubation, Tris/HCl pH 9.0, 37 °C; substrate AMC-arachidonoyl amide; read-out: %inhibition at 100nM
What inhibition at 0.1 µM was measured for each of the following?
Numbers only, in %.

NC(=O)NNC(=O)c1ccc(NC(N)=O)cc1 | 27.3
O=C(NNC(=O)c1ccc(NC(=O)c2ccccc2)cc1)c1ccccc1 [Compound 10a] | 81.1
O=C(NNC(=O)c1ccc([N+](=O)[O-])cc1)c1ccc(NC(=O)c2ccc([N+](=O)[O-])cc2)cc1 [Compound 10f] | 50.5

Value sought for every listed compound: inhibition at 0.1 µM.
1. O=C(O)CCC(=O)NNC(=O)c1ccc(NC(=O)CCC(=O)O)cc1
2. O=C(NNC(=O)c1ccccc1C(=O)O)c1ccc(NC(=O)c2ccccc2C(=O)O)cc1

**Result**
1: 51.2; 2: 80
